All figures here come from ChEMBL document CHEMBL5143527.

assayed.system: Mucosa-associated lymphoid tissue lymphoma translocation protein 1 (Homo sapiens)
Sequence (Q9UDY8 whole entry): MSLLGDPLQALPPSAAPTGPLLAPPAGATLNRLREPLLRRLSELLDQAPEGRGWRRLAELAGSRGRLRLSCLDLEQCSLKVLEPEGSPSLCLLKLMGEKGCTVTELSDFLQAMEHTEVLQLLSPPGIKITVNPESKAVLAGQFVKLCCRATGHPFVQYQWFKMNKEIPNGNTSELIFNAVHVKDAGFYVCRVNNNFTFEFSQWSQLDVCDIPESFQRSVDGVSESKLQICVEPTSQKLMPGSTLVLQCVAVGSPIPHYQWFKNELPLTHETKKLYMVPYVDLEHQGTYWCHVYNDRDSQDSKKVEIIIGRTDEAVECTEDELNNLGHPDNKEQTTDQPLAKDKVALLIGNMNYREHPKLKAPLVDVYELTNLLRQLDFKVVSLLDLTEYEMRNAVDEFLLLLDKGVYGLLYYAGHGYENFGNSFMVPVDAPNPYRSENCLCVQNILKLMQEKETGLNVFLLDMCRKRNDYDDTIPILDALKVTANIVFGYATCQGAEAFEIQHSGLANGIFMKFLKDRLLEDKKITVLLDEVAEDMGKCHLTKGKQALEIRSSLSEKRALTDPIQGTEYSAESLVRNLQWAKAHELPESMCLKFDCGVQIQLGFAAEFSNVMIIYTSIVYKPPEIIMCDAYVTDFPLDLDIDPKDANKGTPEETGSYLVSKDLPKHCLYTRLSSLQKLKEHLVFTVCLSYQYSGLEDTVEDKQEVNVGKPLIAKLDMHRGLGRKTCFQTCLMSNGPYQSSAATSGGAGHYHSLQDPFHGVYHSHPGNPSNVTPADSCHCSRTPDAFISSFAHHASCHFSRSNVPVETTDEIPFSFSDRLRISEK
experiment: Inhibition of human MALT1 assessed as cleavage of substrate using fluorescent labeled Ac-LRSR-Rh110 peptide as substrate incubated for 30 mins followed by substrate addition and measured after 3 to 4 hrs by FRET assay
pIC50: −log10 of the molar value.

{"columns": ["compound", "inequality.sign", "pIC50"],
 "data": [
  ["FC(F)(F)c1nccc(N[C@@H]2CC[C@H](Nc3ccc4nnc(Cl)n4n3)C2)n1 (racemic)", "=", 5.96],
  ["Cc1nnc2ccc(N[C@H]3CC[C@@H](Nc4ccnc(C(F)(F)F)n4)CC3)nn12", "=", 5.33],
  ["FC(F)(F)c1nccc(N[C@H]2CC[C@@H](Nc3ccncn3)CC2)n1", "<", 4.30],
  ["FC(F)(F)c1nccc(N[C@H]2C[C@@H](CNc3ccc4nnc(Cl)n4n3)C2)n1", "=", 4.77],
  ["FC(F)(F)c1nccc(N[C@H]2CC[C@@H](Nc3ccc4ncc(Cl)n4n3)CC2)n1", "=", 6.40],
  ["FC(F)(F)c1nccc(N[C@H]2CC[C@@H](Oc3ccc4nnc(Cl)n4n3)CC2)n1", "=", 5.14],
  ["Clc1nnc2ccc(N[C@H]3CC[C@@H](Nc4ccncn4)CC3)nn12", "=", 4.51],
  ["FC(F)(F)c1nccc(N2CCN(c3ccc4nnc(Cl)n4n3)CC2)n1", "<", 4.30],
  ["FC(F)(F)c1nccc(N2CCC(Nc3ccc4nnc(Cl)n4n3)CC2)n1", "<", 4.30],
  ["Nc1nnc2ccc(N[C@H]3CC[C@@H](Nc4ccnc(C(F)(F)F)n4)CC3)nn12", "=", 4.59],
  ["FC(F)(F)c1cccc(N[C@H]2CC[C@@H](Nc3ccnc(C(F)(F)F)n3)CC2)c1", "=", 5.74],
  ["FC(F)(F)c1nccc(N[C@H]2C[C@@H](Nc3ccc4nnc(Cl)n4n3)C2)n1", "<", 4.30],
  ["FC(F)(F)c1nccc(O[C@H]2CC[C@@H](Nc3ccc4nnc(Cl)n4n3)CC2)n1", "=", 5.92],
  ["FC(F)(F)c1nccc(N[C@H]2CC[C@@H](Nc3ccc4nnc(Br)n4n3)CC2)n1", "=", 5.96],
  ["CN(c1ccc2nnc(Cl)n2n1)[C@H]1CC[C@@H](Nc2ccnc(C(F)(F)F)n2)CC1", "=", 6.30],
  ["COc1ncc(N[C@H]2CC[C@@H](Nc3ccc4nnc(Cl)n4n3)CC2)cc1Cl", "=", 6.22],
  ["FC(F)(F)c1nccc(N[C@H]2CC[C@@H](Nc3ccc4nnc(Cl)n4n3)CC2)n1", "=", 6.52],
  ["FC(F)(F)c1nccc(N[C@H]2CC[C@@H](Nc3cnc4ccccc4c3)CC2)n1", "=", 5.14],
  ["FC(F)(F)c1nccc(N[C@H]2CC[C@@H](Nc3ccc4nnc(C5CC5)n4n3)CC2)n1", "=", 5.35]
]}
